Sourced from patent US20250057844A1

test_description: Second PK study: daily oral dose for 5 days, two formulations
Assay type: in vivo, female Swiss Albino mice
measurement_context: female, Swiss Albino, mouse, plasma, po, 7.5 mg/kg, day 5, daily oral 7.5 mg/kg, Formulation 2, female mice, based on iv exposure; read-out: F (%)
outcome_measure: bioavailability (%)
Enter your answer as a number in %; do not include the unit.

Q: Data request, read-out bioavailability, for `COc1cc(N2CCNCC2)ccc1Nc1ncc2c(n1)-n1ccc(C(=O)Nc3c(C)cccc3C)c1CC2`
Result: 29

----------
test_description: Maximum tolerated dose (MTD) in mice
measurement_context: mouse, in vivo, iv, 2QW
outcome_measure: MTD (mg/kg)
Enter your answer as a number in mg/kg; do not include the unit.

Q: Data request, read-out MTD, for COc1cc(N2CCNCC2)ccc1Nc1ncc2c(n1)-n1ccc(C(=O)Nc3c(C)cccc3C)c1CC2 [compound of formula (I)]
Result: 12.5
